Tested on: RPMI-8226 leukemia
Assay: NCI tumour cell line growth inhibition, 48 h

compound | TGI
OC1(c2ccc(Cl)cc2)c2c(ccc3c2OCO3)C2=NCCN21 (stereo not drawn) | 42.5 µM
O=S(=O)(N/N=C/c1ccc(Cl)c(Cl)c1)c1ccccc1 | > 100 µM
CC(C)CC[C@H](O)[C@@H](C)[C@H]1[C@@H](OC2OC(C)C(O)C(O)C2O)C[C@H]2[C@@H]3CC=C4C[C@@H](O)CC[C@]4(C)[C@H]3[C@@H](O)C[C@]12C (stereo partly drawn) | 0.229 µM
CCC[CH2][Sn]([CH2]CCC)([O]C(=O)c1cc(F)ccc1F)[O][Sn]([CH2]CCC)([CH2]CCC)[O]C(=O)c1cc(F)ccc1F | > 100 µM
S=C1Cc2c(-c3ccc(Cl)cc3)cc(-c3ccccc3)nc2-c2ccccc2N1 | > 100 µM
COC(=O)C(C)(C)OCc1ccc(C2NC(=O)N(c3cccc(Cl)c3)C(=O)N2c2cccc(Cl)c2)cc1 (stereo not drawn) | > 100 µM
COc1cc(C(=O)N2N=C(c3ccc(S(C)(=O)=O)cc3)CC2c2ccco2)cc(OC)c1OC (stereo not drawn) | 4.36 µM
CC[O-].CC[O-].O=C([CH-]C(=O)c1cccnc1)c1ccccc1.O=C([CH-]C(=O)c1cccnc1)c1ccccc1.[Ti+4] | > 100 µM
Cn1ccc(C(=O)N2CCSC2=S)c(OCc2ccccc2)c1=O | > 100 µM
CC1=NOC2(C1)C(=O)Nc1ccccc12 (stereo not drawn) | > 100 µM
O=C1CC(c2cccc(O)c2)C2(C(=O)NC(=S)NC2=O)C(c2cccc(O)c2)C1 (stereo not drawn) | > 100 µM
CCOC(=O)c1c(-c2ccccc2)oc(-c2ccccc2)c1C(=O)OCC | > 100 µM
CCOc1ccc(Nc2nc3c(s2)C(=O)c2ccccc2C3=O)cc1 | > 100 µM
Cn1cc(C2=C(c3cccc(N)c3)C(=O)NC2=O)c2ccccc21 | > 25 µM
O=[N+]([O-])c1ccc(-c2nc3ccc([N+](=O)[O-])cc3[nH]2)cc1 | > 100 µM
COc1ccc(NC(=O)CC(=O)N2N=C(c3ccccc3)C(N=Nc3ccc(S(=O)(=O)CCOS(=O)(=O)O)cc3)C2=O)cc1 (stereo not drawn) | > 100 µM
COc1cc2c(c(O)c1OC)C(O)C1CCC(=O)N1C2c1cccc2ccccc12 (stereo not drawn) | > 100 µM
CCN1C=C/C(=C\C=C/c2cc[n+](CC)c3ccccc23)c2ccccc21 | 12 µM
